Here the recorded abundance fitness is given for each entry.
B1: Pre-mRNA-processing factor 40 homolog B, residues 274 to 332; numbered along this chain, Q6NWY9 (parent)
chain: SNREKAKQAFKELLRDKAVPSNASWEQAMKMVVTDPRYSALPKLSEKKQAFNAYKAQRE

- Variants of: B1
- assay_overview: abundance fitness (aPCA) (normalised: wild type 0, dead -1); higher = more abundant; growth selection in yeast, the domain comes from the species named
- test_context: Homo sapiens
Lab note: jot down the number only; don't add units.

K43G = 0.001
S21M = 0.074
E26G = -0.274
Q49C = -0.239
S45K = -0.117

Req: Fill blank: measured abundance fitness of the variant Q49L is ____.
Resp: -0.386

Req: Fill blank: measured abundance fitness of the variant K17G is ____.
Resp: -0.599

Req: Fill blank: measured abundance fitness of the variant L44Y is ____.
Resp: -0.809

Req: Fill blank: measured abundance fitness of the variant L13I is ____.
Resp: -1.12

Req: Fill blank: measured abundance fitness of the variant K47A is ____.
Resp: -0.458

These entries and their values trace back to the Human Domainome abundance scans (Beltran et al. 2025).
